// data source = patent US20260242478A1

Property: Phage binding ELISA signal, Anti-PSMA Fab in presence of PSMA; scope: individual binders
- Test Target: T1, PSMA Fab (biotinylated (site not given))
- T1 construct: Biotinylated PSMA Fab captured on neutravidin plates in the phage ELISA; also called Anti-PSMA Fab; 006 PSMA Fab
- Method: phage ELISA on captured biotinylated PSMA Fab, wells pre-incubated with PSMA antigen (competitor: PSMA); anti-M13 HRP detection
Where no end group is shown, it is not given here.
Enter the number alone.

Binder: EHKWCTPLWMCEGL (peptide, not shown: large carriers, cysteine pairing not given here; also: fused to phage pIII (clonal phage display), Clonal phage of the Peptide-180 optimisation library, tested as crude supernatant) [Phage-2475]
Recorded Measurement: 0.09

Please give the documented Phage binding ELISA signal, Anti-PSMA Fab in presence of PSMA of PEHWCIPPWMCVVH (peptide, not shown: large carriers, cysteine pairing not given here; also: displayed on phage as fusion to pIII, pIII and linker sequence not given here, Clonal phage of the Peptide-180 optimisation library, tested as crude supernatant) [Phage-2473]
0.513

Please give the documented Phage binding ELISA signal, Anti-PSMA Fab in presence of PSMA of VDKLCRPAWMCVAS (peptide, not shown: large carriers, cysteine pairing not given here; also: displayed as fusion to phage pIII, Clonal phage of the Peptide-180 optimisation library, tested as crude supernatant) [Phage-2470]
0.0775

Please give the documented Phage binding ELISA signal, Anti-PSMA Fab in presence of PSMA of GDKWCIPDWMCVQS (peptide, not shown: large carriers, cysteine pairing not given here; also: displayed as fusion to phage pIII, Clonal phage of the Peptide-180 optimisation library, tested as crude supernatant) [Phage-2467]
0.0692
